All values here come from patent US7491819B1.

# Test system: HIV-1 303B
# assay-summary: microbe, parasite or virus in culture
# Assay type: cell-based
# test-settings: in combination with Example 19; EC50 ratio Example 19:comparator 2.5:1; 95% CI in parenthesis
property: Combination Indices at 75% HIV Inhibition (Confidence Interval)

# compound, result
measured = [
    ("O=c1[nH]cnc2c1ncn2[C@H]1CC[C@@H](CO)O1 [Didanosine, didanosine]", "0.49 (0.44, 0.53)"),
    ("Cc1ccnc2c1NC(=O)c1cccnc1N2C1CC1 [Nevirapine, nevirapine]", "0.68 (0.55, 0.81)"),
    ("Nc1nc(=O)n([C@@H]2CS[C@H](CO)O2)cc1F [Emtricitabine, emtricitabine]", "0.25 (0.20, 0.30)"),
    ("Nc1ccn([C@H]2CC[C@@H](CO)O2)c(=O)n1 [Zalcitabine, zalcitabine]", "0.82 (0.58, 1.07)"),
    ("Nc1nc(NC2CC2)c2ncn([C@H]3C=C[C@@H](CO)C3)c2n1 [Abacavir, abacavir]", "0.82 (0.68, 0.96)"),
    ("CC(C)c1nc(CN(C)C(=O)N[C@H](C(=O)N[C@@H](Cc2ccccc2)C[C@H](O)[C@H](Cc2ccccc2)NC(=O)OCc2cncs2)C(C)C)cs1 [Ritonavir, ritonavir]", "0.72 (0.50, 0.93)"),
    ("CC(C)(C)NC(=O)[C@@H]1CN(Cc2cccnc2)CCN1C[C@@H](O)C[C@@H](Cc1ccccc1)C(=O)N[C@H]1c2ccccc2C[C@H]1O [Indinavir, indinavir]", "0.79 (0.71, 0.87)"),
    ("COC(=O)N[C@H](C(=O)N[C@@H](Cc1ccccc1)[C@@H](O)CN(Cc1ccc(-c2ccccn2)cc1)NC(=O)[C@@H](NC(=O)OC)C(C)(C)C)C(C)(C)C [Atazanavir, atazanavir]", "0.60 (0.54, 0.67)"),
    ("O=C1Nc2ccc(Cl)cc2[C@@](C#CC2CC2)(C(F)(F)F)O1 [Efavirenz, efavirenz]", "0.96 (0.83, 1.10)"),
    ("C[C@H](Cn1cnc2c(N)ncnc21)OCP(=O)(O)O [Tenofovir, tenofovir]", "0.84 (0.67, 1.01)"),
    ("Cc1cccc(C)c1OCC(=O)N[C@@H](Cc1ccccc1)[C@@H](O)C[C@H](Cc1ccccc1)NC(=O)[C@H](C(C)C)N1CCCNC1=O [Lopinavir, lopinavir]", "0.62 (0.55, 0.70)"),
    ("CC(C)(C)NC(=O)[C@@H]1C[C@@H]2CCCC[C@@H]2CN1C[C@@H](O)[C@H](Cc1ccccc1)NC(=O)[C@H](CC(N)=O)NC(=O)c1ccc2ccccc2n1 [Saquinavir, saquinavir]", "0.77 (0.66, 0.89)"),
    ("CC(C)CN(C[C@@H](O)[C@H](Cc1ccccc1)NC(=O)O[C@H]1CCOC1)S(=O)(=O)c1ccc(N)cc1 [Amprenavir, amprenavir]", "0.62 (0.50, 0.74)"),
    ("Cc1cn([C@H]2C[C@H](N=[N+]=[N-])[C@@H](CO)O2)c(=O)[nH]c1=O [Zidovudine]", "0.83 (0.64, 1.02)"),
]

====

# assay-target: HIV-integrase (Human immunodeficiency virus type 1 group M subtype B, UniProt P12497)
# Construct: Recombinant integrase (0.26 ng) was incubated with the beads
# assay-summary: HIV-Integrase Inhibition Activity (SPA bead strand-transfer assay)
# Assay type: biochemical
Each entry below lists one item and its recorded IC50 value.
property: IC50

# compound, assay-target, result
rows = [
    ("CC1(C)OCCn2c1nc(C(=O)NCc1ccc(F)cc1OC(=O)N1CCOCC1)c(O)c2=O [Example 99]", "HIV-integrase (Human immunodeficiency virus type 1 group M subtype B, UniProt P12497)", "2 to 100 nM"),
    ("CN(C)C(=O)Oc1cc(F)ccc1CNC(=O)c1nc2n(c(=O)c1O)CCOC2(C)C [Example 96]", "HIV-integrase (Human immunodeficiency virus type 1 group M subtype B, UniProt P12497)", "2 to 100 nM"),
    ("CC1(C)OCCn2c1nc(C(=O)NCc1cccc(C3(C(F)(F)F)NN3)c1)c(O)c2=O [Example 104]", "HIV-integrase (Human immunodeficiency virus type 1 group M subtype B, UniProt P12497)", "100 to 1000 nM"),
]

====

# Test system: HIV-1 303B
# assay-summary: microbe, parasite or virus in culture
# Format: cell-based
# test-settings: in combination with Example 19; EC50 ratio Example 19:comparator 1:2.5; 95% CI in parenthesis
property: Combination Indices at 50% HIV Inhibition (Confidence Interval)

# compound, result
data = [
    ("Cc1ccnc2c1NC(=O)c1cccnc1N2C1CC1 [Nevirapine, nevirapine]", "0.76 (0.64, 0.87)"),
    ("C[C@H](Cn1cnc2c(N)ncnc21)OCP(=O)(O)O [Tenofovir, tenofovir]", "0.68 (0.59, 0.77)"),
    ("Cc1c(O)cccc1C(=O)N[C@@H](CSc1ccccc1)[C@H](O)CN1C[C@H]2CCCC[C@H]2C[C@H]1C(=O)NC(C)(C)C [Nelfinavir, nelfinavir]", "0.97 (0.89, 1.06)"),
    ("Cc1cn([C@H]2C[C@H](N=[N+]=[N-])[C@@H](CO)O2)c(=O)[nH]c1=O [Zidovudine]", "0.65 (0.56, 0.75)"),
]

====

# assay-target: HIV-integrase (Human immunodeficiency virus type 1 group M subtype B)
# Construct: Recombinant integrase (0.26 ng) was incubated with the beads
# assay-summary: HIV-Integrase Inhibition Activity (SPA bead strand-transfer assay)
# Assay type: biochemical
# test-settings: Table 1; read-out: Activity (HIV-integrase inhibition, IC50 class)
pIC50: −log10 of the molar value.
Each entry below lists one item and its recorded pIC50 value.

# smiles-representation, pIC50
rows = [
    ("CCNc1cc(F)ccc1CNC(=O)c1nc2n(c(=O)c1O)CCOC2(C)C", "7.00 to 8.70"),
    ("CC1(C)OCCn2c1nc(C(=O)NCc1cc(F)cc(C(F)(F)F)c1)c(O)c2=O", "7.00 to 8.70"),
    ("CC1(C)OCCn2c1nc(C(=O)NCc1ccc(Cl)c(Cl)c1)c(O)c2=O", "7.00 to 8.70"),
    ("COc1ccccc1CNC(=O)c1nc2n(c(=O)c1O)CCOC2(C)C", "7.00 to 8.70"),
    ("COc1cc(CNC(=O)c2nc3n(c(=O)c2O)CCOC3(C)C)ccc1F", "7.00 to 8.70"),
    ("CC1(C)OCCn2c1nc(C(=O)NCc1ccc(-n3cncn3)cc1F)c(O)c2=O", "6.00 to 7.00"),
    ("Cc1cnc(CNC(=O)c2nc3n(c(=O)c2O)CCOC3(C)C)cn1", "7.00 to 8.70"),
    ("CC1(C)OCCn2c1nc(C(=O)NCc1ccccc1N1CCCCS1(=O)=O)c(O)c2=O", "7.00 to 8.70"),
    ("CC1(C)OCCn2c1nc(C(=O)NCc1ccc(F)cc1Br)c(O)c2=O", "7.00 to 8.70"),
]

====

# System: HIV-1 303B
# assay-summary: microbe, parasite or virus in culture
# Format: cell-based
# test-settings: in combination with Example 19; EC50 ratio Example 19:comparator 1:1; 95% CI in parenthesis
Each entry below lists one item and its recorded Combination Indices at 90% HIV Inhibition (Confidence Interval) value.
property: Combination Indices at 90% HIV Inhibition (Confidence Interval)

# molecule, result
rows = [
    ("Cc1cn([C@H]2C=C[C@@H](CO)O2)c(=O)[nH]c1=O [Stavudine, stavudine]", "0.42 (0.26, 0.57)"),
    ("Cc1ccnc2c1NC(=O)c1cccnc1N2C1CC1 [Nevirapine, nevirapine]", "0.66 (0.46, 0.87)"),
    ("Cc1c(O)cccc1C(=O)N[C@@H](CSc1ccccc1)[C@H](O)CN1C[C@H]2CCCC[C@H]2C[C@H]1C(=O)NC(C)(C)C [Nelfinavir, nelfinavir]", "0.71 (0.56, 0.84)"),
    ("Cc1cn([C@H]2C[C@H](N=[N+]=[N-])[C@@H](CO)O2)c(=O)[nH]c1=O [Zidovudine]", "0.54 (0.36, 0.70)"),
    ("CC(C)(C)NC(=O)[C@@H]1CN(Cc2cccnc2)CCN1C[C@@H](O)C[C@@H](Cc1ccccc1)C(=O)N[C@H]1c2ccccc2C[C@H]1O [Indinavir, indinavir]", "0.60 (0.46, 0.73)"),
    ("Nc1ccn([C@H]2CC[C@@H](CO)O2)c(=O)n1 [Zalcitabine, zalcitabine]", "0.53 (0.28, 0.79)"),
    ("COC(=O)N[C@H](C(=O)N[C@@H](Cc1ccccc1)[C@@H](O)CN(Cc1ccc(-c2ccccn2)cc1)NC(=O)[C@@H](NC(=O)OC)C(C)(C)C)C(C)(C)C [Atazanavir, atazanavir]", "0.52 (0.37, 0.67)"),
]
